target: DNA damage-binding protein 1 (Homo sapiens)
Sequence (Q16531 whole entry): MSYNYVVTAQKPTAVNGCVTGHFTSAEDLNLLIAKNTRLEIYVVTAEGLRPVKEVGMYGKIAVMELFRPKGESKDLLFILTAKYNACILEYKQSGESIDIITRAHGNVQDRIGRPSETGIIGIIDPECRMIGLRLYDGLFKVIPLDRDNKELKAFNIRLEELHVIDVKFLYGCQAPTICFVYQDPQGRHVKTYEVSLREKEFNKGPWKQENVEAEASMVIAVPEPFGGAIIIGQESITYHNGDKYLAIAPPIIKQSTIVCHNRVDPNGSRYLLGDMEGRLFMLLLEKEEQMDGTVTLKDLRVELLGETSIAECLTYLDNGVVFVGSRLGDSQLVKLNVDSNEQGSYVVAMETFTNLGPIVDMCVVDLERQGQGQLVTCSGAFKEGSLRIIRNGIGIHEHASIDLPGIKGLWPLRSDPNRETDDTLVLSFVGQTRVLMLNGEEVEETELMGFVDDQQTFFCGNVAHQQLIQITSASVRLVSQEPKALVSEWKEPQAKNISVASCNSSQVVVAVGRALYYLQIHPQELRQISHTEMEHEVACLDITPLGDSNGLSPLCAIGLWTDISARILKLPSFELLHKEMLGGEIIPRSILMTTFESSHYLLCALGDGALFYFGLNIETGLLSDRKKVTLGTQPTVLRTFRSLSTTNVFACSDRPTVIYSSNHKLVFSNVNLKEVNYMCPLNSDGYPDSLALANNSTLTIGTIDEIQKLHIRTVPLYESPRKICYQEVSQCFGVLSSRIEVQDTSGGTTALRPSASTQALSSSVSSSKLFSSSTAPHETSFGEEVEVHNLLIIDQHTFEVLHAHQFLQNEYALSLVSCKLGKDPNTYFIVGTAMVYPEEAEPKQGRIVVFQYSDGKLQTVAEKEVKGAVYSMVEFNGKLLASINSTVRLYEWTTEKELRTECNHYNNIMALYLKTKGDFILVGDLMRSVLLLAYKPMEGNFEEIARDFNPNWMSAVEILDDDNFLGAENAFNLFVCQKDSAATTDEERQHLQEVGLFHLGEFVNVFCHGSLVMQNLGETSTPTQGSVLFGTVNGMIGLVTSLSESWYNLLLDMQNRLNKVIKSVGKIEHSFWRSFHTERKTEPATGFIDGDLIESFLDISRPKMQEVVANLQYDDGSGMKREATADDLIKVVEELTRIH
pKd: −log10 of the molar value.
measured_quantity: pKd

Field request: pKd | item: `Cc1cc(NCCOCCOCCOCCOCCOCCN)ccc1C(=O)Nc1nc(C)c(C)s1`
> 4.70
